# Test system: HCT-116 colon
# ASSAY_DETAILS: NCI tumour cell line growth inhibition, 48 h
OBSERVATION_TYPE: GI50

| SMILES_STRING | GI50 |
| --- | --- |
| C/C(=N\NC(=O)c1cccnc1)c1cccc(/C(C)=N/NC(=O)c2cccnc2)n1 | 4.24 µM |
| O=c1cc(-c2ccc(Cl)cc2)[nH]c2ncccc12 | 32.1 µM |
| CCOC(=O)c1c(C)nc2ccc(Cl)cc2c1-c1ccccc1 | 12.3 µM |

Respectfully, I request GI50 for each entry included below.
1. N.N.N.N.N.N.[I-].[Os]
2. COc1ccc(/C(C)=C(\c2ccc(Cl)cc2)c2ccc(OCCN3CCCC3)cc2)cc1F

["> 100 µM", "2.05 µM"]
